Tested on: DAOY cells
Assay: Cell viability MTT assay in DAOY cells
Type: cell-based, human
Conditions: Homo sapiens, Daoy, 48-72 hours
Method: For cell viability assay, DAOY cells from SHH-MB group and HD-MB03 from Group 3 MB were exposed to new analogs in a range of concentrations. In brief, cells were seeded in 96-well plate with a density of 3×10^3 cells/well density for 16 hours. […] MTT assay reagent was added to the cells and after incubation for 4 hours, formazan crystals were dissolved in 200 μL DMSO, and the absorbance was determined using a microplate reader (Molecular Devices Me5). […]
METRIC: IC50 (µM)

1. O=C(/C=C/N1CCOCC1)c1cccc(-c2cc3c(cc2Br)OCCO3)c1O    5.51
2. O=c1cc(N2CCOCC2)oc2c(-c3ccc4c(c3)OCCO4)cccc12    5.57

Origin of the recorded values: patent US20260069599A1
